Values were extracted from patent US20080160035A1.

Kindly state T1/2 dimeric for each of the entries shown.
Target: T1, dimeric hIL-4R-hFc (human, UniProt P24394 26-232)
T1 construct: also called hIL-4R-Fc; not shown: human Fc (hFc)
T1 sequence: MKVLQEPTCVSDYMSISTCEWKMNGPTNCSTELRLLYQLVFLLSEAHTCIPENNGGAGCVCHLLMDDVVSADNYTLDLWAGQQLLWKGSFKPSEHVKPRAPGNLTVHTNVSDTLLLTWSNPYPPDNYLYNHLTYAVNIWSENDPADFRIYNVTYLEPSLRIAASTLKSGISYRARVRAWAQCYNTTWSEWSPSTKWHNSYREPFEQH
Test: SPR (BIAcore 2000); antibody captured, dimeric hIL-4R-hFc injected
Please format your answer as a value with the unit trailing.

For orientation, consider the following solved cases.
# Binder, T1/2 dimeric
records = [
    ("VAB 3B4-10 (antibody, V domains shown, Apparently tested with mouse constant region (anti-mouse IgG capture/detection)) VH: QVHLVQSGAEVKKPGASVKVSCKASGYTFTNYGIGWVRQAPGQGLEWMGWISIYNGNTNYAQRLQGRVTMTTDTSTSTAFMDLRSLKSDDTAVYYCARGSGYNFDHWGQGTLVTVSS VL: AIQMTQSPSSLSASVGDRVTITCRASQGIRNDLGWYQQIPGKAPKLLIYAASSLQSGVPSRFSGSGSGTDFTLTISNLQPEDFAVYFCLQDNTYPYTFGQGTNLESK", "20.4 h"),
    ("VAB 16F3-1 (antibody, V domains shown, Apparently tested with mouse constant region (anti-mouse IgG capture/detection)) VH: QVQLVQSGAEVKKPGASVKVSCKASGYTFNSYGISWVRQAPGQGLEWMGWIRTYNGNTNYAQKLQGRVTMTTDTSTSTAYMELRSLRSDDTAVYYCARDEARIVVAGTTPYYYGMDVWGQGTTVTVSS VL: DIQMTQSPSSVSASVGDRVTITCRASQDISIWLAWYQQSPGKAPKLLINVASRLQSGVPSRFSGSGSGTDFTLTINSLQPEDFVTYYCQQANSFPITFGQGTRLATK", "41 h"),
]

Consider now this further binder.
So, VAB 15C8-17 (antibody, V domains shown, Apparently tested with mouse constant region (anti-mouse IgG capture/detection)) VH: QVQLVESGGGLVQPGGSLRLSCAVSGFTISDHYMSWIRQAPGKGLEWISYISSSGSKIYYADSVKGRFTISRDNAKNSLFLQMNSLRAEDTAVYYCARTRQLVGDYWGQGTLVTVSS VL: DIQLTQSPSFLSASVGDRVTITCWASQGISSYLAWYQQKPGKAPKLLIFAASTLQSGVPSRFSGSGSGTEFTLTISSLQPEDFATYYCQQLNSYPLTFGGGTKVEIR ? Its T1/2 dimeric was 3.6 h
